# target-or-test-system: mASH1L PHD domain (residue 2573–2624) (mouse) (UniProt Q99MY8)
# experiment-description: NMR titration; 1H,15N HSQC; 100 μM PHD domain titrated with 25 to 2,000 μM peptide; 1×PBS pH 7.2, 100 μM ZnCl2, 298 K; single-site binding model
Primed or numbered codes have the meaning given here. Where no end group is shown, it is not given here. [ ]: non-standard residue; d: D form. Me3″ = trimethylation (trimethyl-lysine); Lys(Me2) = CN(C)CCCC[C@H](N)C(=O)O
reported-property: Kd (µM)
Only the number, expressed in µM, is required.

Asked: Find the recorded Kd belonging to ARTK(Me3″)QTARKSTGGKA (peptide, UniProt P68431 2-16, looked up, histone H3, residues 1-15; also called H3K4me3; source: synthetic peptide (MIMOYOPES, Wuxi, China)) [histone H3 (1–15) peptide, trimethylated on lysine 4] and report it.
Given back: 106

Asked: Find the recorded Kd belonging to ART[Lys(Me2)]QTARKSTGGKA (also called H3K4me2; H3K4me2 peptide (1–15); source: synthetic peptide (MIMOYOPES, Wuxi, China)) [histone H3 (1–15) peptide, dimethylated on lysine 4] and report it.
Given back: 238

Asked: Find the recorded Kd belonging to ARTK(Me)QTARKSTGGKA (peptide, UniProt P68431 2-16, looked up, histone H3, residues 1-15; also called H3K4me1; H3K4me; source: synthetic peptide (MIMOYOPES, Wuxi, China)) [histone H3 (1–15) peptide, monomethylated on lysine 4] and report it.
Given back: 181
